- Organism: Rattus norvegicus
- TEST PROTOCOL: DrugMatrix - Regimen: Daily Repeat
- Format: toxicity, organism-based, Sprague-Dawley
- Design: regimen Daily Repeat, gender Male, age 6-8 weeks
- PARTICULARS: in vivo, po, 0 mg/kg, 72 h, tissue Blood, route oral GAVAGE, dose level Control, time 3 day, […]
Binarize PLATELET COUNT at 1000 x10E3/uL; below is 1.0, at or above is 0.0.

Study these solved cases before continuing.
CCCCCCCCc1ccc(O)cc1    0.0
Clc1ccc(Cl)cc1    0.0
C[C@]12CC[C@@H]3c4ccc(O)cc4CC[C@H]3[C@@H]1CC[C@@H]2O    0.0
CC(C)Cc1ccc(C(C)C(=O)O)cc1 (configuration not stated)    0.0
CC(C)(Oc1ccc(C2CCCc3ccccc32)cc1)C(=O)O (configuration not stated)    1.0

Enquiry: Strictly below 1000 x10E3/uL in PLATELET COUNT? `CC(=O)Nc1cccc(O)c1`
Return: 0.0

Enquiry: Strictly below 1000 x10E3/uL in PLATELET COUNT? `CC/C(=C(/CC)c1ccc(O)cc1)c1ccc(O)cc1`
Return: 0.0

Enquiry: Strictly below 1000 x10E3/uL in PLATELET COUNT? Cc1cccc(Nc2ccncc2S(=O)(=O)NC(=O)NC(C)C)c1 [TORSEMIDE]
Return: 0.0

Enquiry: Strictly below 1000 x10E3/uL in PLATELET COUNT? `C[C@H]1O[C@@H](O[C@H]2[C@@H](O)C[C@H](O[C@H]3[C@@H](O)C[C@H](O[C@H]4CC[C@@]5(C)[C@H](CC[C@@H]6[C@@H]5CC[C@]5(C)[C@@H](C7=CC(=O)OC7)CC[C@]65O)C4)O[C@@H]3C)O[C@@H]2C)C[C@H](O)[C@@H]1O`
Return: 1.0

Enquiry: Strictly below 1000 x10E3/uL in PLATELET COUNT? S=C=Nc1cccc2ccccc12 [1-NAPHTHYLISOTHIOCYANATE]
Return: 0.0

----------
Provide the recorded BASOPHIL for the entries that follow.
- Organism: Rattus norvegicus
- TEST PROTOCOL: DrugMatrix - Regimen: Daily Repeat
- Assay type: toxicity, organism-based, Sprague-Dawley
- Design: regimen Daily Repeat, gender Male, age 6-8 weeks
- PARTICULARS: in vivo, po, 0 mg/kg, 120 h, tissue Blood, route oral GAVAGE, dose level Control, time 5 day, […]
Numbers only, in %.

Guide cases for BASOPHIL, answers given:
CC(C)(Oc1ccc(C2CCCc3ccccc32)cc1)C(=O)O (centres undefined)    0
C[C@H]1O[C@@H](O[C@H]2[C@@H](O)C[C@H](O[C@H]3[C@@H](O)C[C@H](O[C@H]4CC[C@@]5(C)[C@H](CC[C@@H]6[C@@H]5CC[C@]5(C)[C@@H](C7=CC(=O)OC7)CC[C@]65O)C4)O[C@@H]3C)O[C@@H]2C)C[C@H](O)[C@@H]1O    0
COc1ccc2cc([C@H](C)C(=O)O)ccc2c1    0
Cc1cccc(Nc2ccncc2S(=O)(=O)NC(=O)NC(C)C)c1 [TORSEMIDE]    0
CC(=O)N1CCN(c2ccc(OCC3COC(Cn4ccnc4)(c4ccc(Cl)cc4Cl)O3)cc2)CC1 (centres undefined)    0
CC(=O)Nc1ccc(O)cc1    0
C[C@]12CC[C@@H]3c4ccc(O)cc4CC[C@H]3[C@@H]1CC[C@@H]2O    0
O=NN(CCCl)C(=O)NCCCl    0

Here is another molecule to look at.
Enquiry: Reported BASOPHIL, molecule `Clc1ccc(Cl)cc1` : ____
Return: 0.3

Each recorded value in this set is attributed to ChEMBL document CHEMBL3885881.
